Please go through the items and note down their enrichment ratio.
B1: PhoQ; a variant is named by its letters at X, in order, P23837 (parent)
chain: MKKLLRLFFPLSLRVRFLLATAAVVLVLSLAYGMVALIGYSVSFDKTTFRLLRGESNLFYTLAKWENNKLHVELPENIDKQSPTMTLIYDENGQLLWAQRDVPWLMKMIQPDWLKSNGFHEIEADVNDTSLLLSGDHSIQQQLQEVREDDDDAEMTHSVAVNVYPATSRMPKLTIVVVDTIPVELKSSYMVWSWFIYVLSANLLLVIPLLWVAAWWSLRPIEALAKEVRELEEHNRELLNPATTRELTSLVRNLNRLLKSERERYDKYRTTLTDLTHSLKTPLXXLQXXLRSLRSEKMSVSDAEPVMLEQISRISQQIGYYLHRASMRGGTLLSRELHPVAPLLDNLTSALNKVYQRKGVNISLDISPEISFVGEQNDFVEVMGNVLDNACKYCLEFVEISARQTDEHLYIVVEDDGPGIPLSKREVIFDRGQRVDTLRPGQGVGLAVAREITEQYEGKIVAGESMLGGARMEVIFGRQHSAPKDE

Variants of: B1
TEST PROTOCOL: enrichment ratio after two sorts for PhoP signalling (ratio (wild type AVST 3.29)); higher = more functional
CONDITION NOTES: with PhoP (E. coli)
In all, about 140,000 sequences were measured (“enrichment ratio after two sorts for PhoP signalling”: median about 0, highest 2% from about 11 on). The list comes from a sample in which the highest values are over-represented; it also holds close analogues and randomly drawn sequences.
Reply with the value as a number alone.

Query :: May I ask what enrichment ratio has been recorded for QMHM ?
Result :: 28.3

Query :: Sample TACR — what was its enrichment ratio?
Result :: 14.8

Query :: I would be grateful if you could share the reported enrichment ratio for TACC .
Result :: 13.6

Query :: I would be grateful if you could share the reported enrichment ratio for AEVG .
Result :: 6.84

Query :: Find the recorded enrichment ratio belonging to AETA and report it.
Result :: 5.73

Query :: State the recorded enrichment ratio for this entry: YFCR
Result :: 0.754

Query :: Any idea what its enrichment ratio is? The variant is GNSG
Result :: 13.2

Query :: Quick check: enrichment ratio of TADH ?
Result :: 4.03

Query :: Tell me the measured enrichment ratio of ICAM , please.
Result :: 17.4

Query :: Reported enrichment ratio, variant GVSG : ____
Result :: 7.26

Query :: Look up enrichment ratio: QMNF
Result :: 36

Query :: Need enrichment ratio, item AEVF
Result :: 14.3

Query :: Request the reported enrichment ratio associated with TTPI
Result :: 4.3

Query :: Recorded enrichment ratio of THGM , please.
Result :: 12.3

Query :: Please look up its enrichment ratio: MEVL
Result :: 11.6

Query :: Sample QMNN — what was its enrichment ratio?
Result :: 12.1

Query :: Would you mind telling me what enrichment ratio value was observed for MAHM ?
Result :: 14.7

Query :: For QMNI , what is its reported enrichment ratio?
Result :: 9.75

Query :: Requested read-out: enrichment ratio. Entry: QMNL
Result :: 3.36

Query :: Which enrichment ratio is reported for this variant? TVSG
Result :: 20.3

Query :: What measured enrichment ratio goes with MAVL ?
Result :: 2.43
